Ref: patent US11111233B2

Test system: Skin cancer cell line A431 (WT)
Assay: Cytotoxicity test (MTS cell viability), A431
Type: cell-based
Details: Homo sapiens, A-431, 72 h, read-out: A431 (WT) IC50(nM)
Parameter: IC50. Scope: all listed entries.

# annotated cases, reported IC50 shown
# CHEM_SMILES, VALUE_TYPE, RESULT
records = [
    ("C=CC(=O)Nc1cc(Nc2nccc(-c3cc(F)c4nc(OC)n(C(C)C)c4c3)n2)c(OC)cc1OCCN(C)C", "IC50", "> 1000 nM"),
    ("C=CC(=O)Nc1cc(Nc2nccc(-c3cc(F)c4c(cnn4C)c3)n2)c(OC)cc1N(C)CCN(C)C", "IC50", "100 to 400 nM"),
    ("C=CC(=O)Nc1cc(Nc2nccc(-c3cc(F)c4nc(C)n(C(C)C)c4c3)n2)c(OC)cc1SCCN(C)C", "IC50", "400 to 1000 nM"),
]

// next entry
Q. I'd like to know its IC50. The compound in question is C=CC(=O)Nc1cc(Nc2nccc(-c3cc(F)c4nc(C)n(C(C)C)c4c3)n2)c(OC)cc1OCCN(C)C
A. 100 to 400 nM

----------
Target: EGFR [L858R/T790M] (Homo sapiens (Human), UniProt P00533, L858R/T790M)
Sequence (P00533 25-1210 T790M/L858R): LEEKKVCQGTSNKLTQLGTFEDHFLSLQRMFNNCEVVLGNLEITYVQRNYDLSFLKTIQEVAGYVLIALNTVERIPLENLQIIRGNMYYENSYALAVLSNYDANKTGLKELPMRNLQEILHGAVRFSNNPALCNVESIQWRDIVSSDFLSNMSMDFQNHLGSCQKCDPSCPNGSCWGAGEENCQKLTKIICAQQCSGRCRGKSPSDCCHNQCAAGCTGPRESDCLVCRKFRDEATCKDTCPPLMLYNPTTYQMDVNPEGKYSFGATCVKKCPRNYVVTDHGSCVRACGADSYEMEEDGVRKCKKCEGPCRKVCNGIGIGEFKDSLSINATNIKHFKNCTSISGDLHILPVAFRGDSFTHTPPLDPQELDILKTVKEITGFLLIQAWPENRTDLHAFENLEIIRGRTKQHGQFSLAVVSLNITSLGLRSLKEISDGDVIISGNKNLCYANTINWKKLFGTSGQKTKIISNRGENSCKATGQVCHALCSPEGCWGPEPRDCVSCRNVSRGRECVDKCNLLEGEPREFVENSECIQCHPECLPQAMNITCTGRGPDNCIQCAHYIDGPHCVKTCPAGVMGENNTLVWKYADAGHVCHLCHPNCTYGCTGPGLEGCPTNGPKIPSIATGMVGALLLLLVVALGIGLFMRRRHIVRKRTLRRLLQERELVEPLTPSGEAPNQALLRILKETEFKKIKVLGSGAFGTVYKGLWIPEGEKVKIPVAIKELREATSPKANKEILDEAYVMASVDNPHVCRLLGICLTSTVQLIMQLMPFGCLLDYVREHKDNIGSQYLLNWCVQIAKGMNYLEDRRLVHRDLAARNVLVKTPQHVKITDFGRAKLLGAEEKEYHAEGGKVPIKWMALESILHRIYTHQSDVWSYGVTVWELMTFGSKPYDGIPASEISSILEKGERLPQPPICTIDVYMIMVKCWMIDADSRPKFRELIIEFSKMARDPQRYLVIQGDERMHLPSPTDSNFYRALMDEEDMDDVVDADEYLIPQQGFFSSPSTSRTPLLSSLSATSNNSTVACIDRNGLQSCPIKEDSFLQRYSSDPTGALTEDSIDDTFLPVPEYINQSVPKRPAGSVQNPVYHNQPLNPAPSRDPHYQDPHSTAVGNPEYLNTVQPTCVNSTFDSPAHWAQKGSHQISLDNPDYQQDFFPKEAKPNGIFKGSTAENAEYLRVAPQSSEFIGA
Assay: Kinase inhibition assay (HTRF), EGFR [L858R/T790M]
Format: biochemical
Conditions: HTRF Kinase TK kit, 10 min pre-incubation, 20 min reaction; read-out: EGFR(L858R/T790M) IC50
pIC50: −log10 of the molar value.
VALUE_TYPE: pIC50

// solved cases for pIC50 follow
# COMPOUND, pIC50
measured = [
    ("C=CC(=O)Nc1cc(Nc2nccc(-c3ccc4cnn(C(C)C)c4c3)n2)c(OC)cc1N(C)CCN(C)C [Example 27]", "> 9.00"),
    ("C=CC(=O)Nc1cc(Nc2nccc(-c3cc(F)c4nc5n(c4c3)CC(C)(C)O5)n2)c(OC)cc1N(C)CCN(C)C [Example 66]", "7.30 to 9.00"),
    ("C=CC(=O)Nc1cc(Nc2nccc(-c3cc(OC(C)(C)C)c4nc(C)n(C(C)C)c4c3)n2)c(OC)cc1N(C)CCN(C)C [Example 30]", "> 9.00"),
    ("C=CC(=O)Nc1cc(Nc2nccc(-c3cc(F)c4nc(C)c(C(C)C)n4c3)n2)c(OC)cc1N(C)CCN(C)C [Example 28]", "7.30 to 9.00"),
    ("C=CC(=O)Nc1cc(Nc2ncc(C(F)(F)F)c(-c3cc(F)c4nc(C)n(C(C)C)c4c3)n2)c(OC)cc1N(C)CCN(C)C [Example 4]", "> 9.00"),
]

Q. I'd like to know its pIC50. The compound in question is C=CC(=O)Nc1cc(Nc2nccc(-c3cc4c5c(c3)n(C(C)C)c(=O)n5CCC4)n2)c(OC)cc1N(C)CCN(C)C [Example 44]
A. > 9.00

Q. C=CC(=O)Nc1cc(Nc2nccc(-c3cc(F)c4nn(C)c(C(C)C)c4c3)n2)c(OC)cc1N(C)CCN(C)C [Example 41] ?
A. > 9.00

Q. Try this compound too: C=CC(=O)Nc1cc(Nc2nccc(-c3cc(F)c4nc5n(c4c3)C(C)(C)CC5)n2)c(OC)cc1N(C)CCN(C)C [Example 5]
A. > 9.00

Q. Please do the same for [2H]C([2H])([2H])C(n1c(C)nc2ccc(-c3ccnc(Nc4cc(NC(=O)C=C)c(N(C)CCN(C)C)cc4OC)n3)cc21)C([2H])([2H])[2H] [Example 52] as well.
A. > 9.00

Q. Next entry: C=CC(=O)Nc1cc(Nc2nccc(-c3cc(F)c4nc(C)n(C(C)C)c4c3)n2)c(OCC)cc1N(C)CCN(C)C [Example 48]
A. > 9.00

Q. Okay, and C=CC(=O)Nc1cc(Nc2nccc(-c3cc(F)c4nn(C)cc4c3)n2)c(OC)cc1N(C)CCN(C)C [Example 40] ?
A. > 9.00
